Reported IC50 values are given for each entry in this list.
target: K-Ras G12C (Homo sapiens (Human), UniProt P01116+P62937, G12C)
Sequence (P01116-2 other isoform, or with tags, fused parts or gaps G12C): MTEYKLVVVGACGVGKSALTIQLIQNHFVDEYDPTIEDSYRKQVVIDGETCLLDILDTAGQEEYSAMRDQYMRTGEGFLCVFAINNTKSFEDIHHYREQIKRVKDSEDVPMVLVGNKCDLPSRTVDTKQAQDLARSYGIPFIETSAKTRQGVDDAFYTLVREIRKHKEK
Sequence (P62937 whole entry): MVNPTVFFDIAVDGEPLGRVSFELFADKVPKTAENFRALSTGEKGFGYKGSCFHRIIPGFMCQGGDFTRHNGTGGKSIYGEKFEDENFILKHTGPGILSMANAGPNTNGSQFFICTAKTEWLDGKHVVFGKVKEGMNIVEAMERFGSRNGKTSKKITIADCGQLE
experiment-notes: Ras-Raf (BRAF RBD) disruption / FRET / MOA assay, KRAS G12C
Assay type: biochemical
run-parameters: KRAS G12C; Ras-Raf disruption/FRET/MOA assay; read-out: IC50* KRAS G12C FRET data

CCn1c(-c2cccnc2[C@H](C)OC)c2c3cc(ccc31)N1CCO[C@@H](C[C@H](NC(=O)[C@@H](COC3CN(C(=O)C#CC(C)(C)N(C)C)C3)C(C)C)C(=O)N3CCC[C@H](N3)C(=O)OCC(C)(C)C2)C1 (atropisomer, axis not shown)    < 10 nM

Consider the record given below.
### Prompt Tell me IC50 of CCn1c(-c2cccnc2COC)c2c3cc(ccc31)-c1cc(C)cc(c1)C[C@H](NC(=O)[C@H](C(C)C)N(C)C(=O)[C@H]1CCN(C(=O)C#CCN(C)C)C1)C(=O)N1CCC[C@H](N1)C(=O)OCC(C)(C)C2 [Example A156] when tested on K-Ras G12C (Homo sapiens (Human), UniProt P01116+P62937, G12C).
### Response 10 to 100 nM

Attribution: patent US11566007B2
